What activity, negative = inhibition was measured for each of the following?
# ASSAY INFO: Stat Signaling Pathway (AID 446);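 note: ME-180 cervical cancer cells given 40 pM IL-6 alongside compound; SIE-controlled beta-lactamase reporter measured as 460/530 nm FRET emission ratio; % is set by controls: 0 for no effect and ±100 for the full control effect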
# CONDITIONS USED: ME-180 SIE beta-lactamase reporter, IL-6 stimulated, 5 h; at 17.2 µM (top of the series) unless noted
Inconclusive results are not listed. The source made the active and inactive calls. Calls come from the whole dose curve; as a rule, active = well fitted curve in either direction with a large enough effect (not every such curve was filed as active); inconclusive = small, poorly fitted or top-dose-only effect, or another doubt; inactive = flat fitted curve, though single readings scatter.

// activity, negative = inhibition lookup, key: CC1CN(C2CCN(C(=O)c3ccccc3Cl)CC2)CC(C)O1 (stereo unspecified)
1.52% (inactive)

For the molecule COC(=O)c1ccc(CSc2nc(N3CCOCC3)c3c(c2C#N)CC(C)(C)OC3)o1 , what activity, negative = inhibition is on record?
20% (inactive)

Can you look up the measured activity, negative = inhibition of Cc1nc(SCC(=O)Nc2ccc3c(c2)OCO3)c(C#N)c2c1CCCC2 for me?
-15.4% (inactive)

Entry COC(=O)c1ccc(C2/C(=C(/O)c3ccc(OC)cc3)C(=O)C(=O)N2c2cc(C)on2)cc1 (stereo unspecified) has what activity, negative = inhibition?
-20.1% (inactive)

For the molecule O=c1[nH]c(=O)n([C@H]2C[C@H](O)[C@H](CO)O2)cc1/C=C\Br , what activity, negative = inhibition is on record?
6.62% [at 38 µM] (inactive)

Quick one: activity, negative = inhibition of CCCSc1nc(C)c(CC(=O)OCC)c(=O)[nH]1 ?
-2.57% (inactive)

Entry S=C(N=Nc1ccccc1)NNc1ccccc1 has what activity, negative = inhibition?
-0.775% (inactive)

What value of activity, negative = inhibition has been reported for the following molecule? CCCn1c(SCC#N)nc2c(c1=O)C1(CCCC1)Cc1ccccc1-2
2.26% (inactive)

I'd like to know its activity, negative = inhibition. The molecule in question is COc1ccc(CN(C)CCc2ccccn2)c(OC)c1OC
11.1% (inactive)

Please give the measured activity, negative = inhibition for this molecule: Cc1cc(-c2cc(C)c(O)c(C(C)(C)C)c2)cc(C(C)(C)C)c1O
14.1% [at 7.69 µM] (inactive)

Entry CC/C(=N\O)c1ccc(OC)c(OC)c1 has what activity, negative = inhibition?
3.07% (inactive)

---

# ASSAY INFO: AP1 Signaling Pathway (AID 357);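 note: ME-180 reporter cells stimulated with EGF at its EC50 level; % is set by controls: 0 for no effect and ±100 for the full control effect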
# CONDITIONS USED: ME-180 (cervical carcinoma) AP-1-bla reporter, EGF-induced, beta-lactamase ratio, 5 h; at 17.2 µM (top of the series) unless noted
Records with an inconclusive call do not appear.
Consider the following compounds; for each one, report its activity change, negative = inhibition.
Please give a number only; it is taken to be in %.

Could you share which activity change, negative = inhibition value was measured for COC(=O)c1c(C)[nH]c(C(=O)OCc2ccc(F)cc2)c1C ?
14.7

Bench note: what activity change, negative = inhibition did CCN(CC)CCNc1nc(-c2ccco2)c2c(c1C#N)CC(C)(C)OC2 show?
12.8

Quick one: activity change, negative = inhibition for CCN(CC)CCCN1C(=O)C(=O)/C(=C(/O)c2ccc(C)cc2)C1c1ccccn1 (stereo not drawn) ?
3.29

Quick check: activity change, negative = inhibition of N/C(=N\S(=O)(=O)c1ccc(Cl)s1)c1ccccc1 ?
-2.33

I am curious: what activity change, negative = inhibition value has been reported for COCc1cc(C)nc(N)c1C#N ?
5.99

Which measured activity change, negative = inhibition value corresponds to Cc1nc2c(c(N3CCOCC3)n1)OCC(=O)N2 ?
6.3

Request the reported activity change, negative = inhibition associated with CCCOc1cccc(C2/C(=C(/O)c3ccc(F)cc3)C(=O)C(=O)N2CCN(C)C)c1 (stereo not drawn)
3.27

Using the record for Cn1c(Cn2cnc(Cl)c2Cl)nc2ccccc21 , report its activity change, negative = inhibition.
2.26

What measured activity change, negative = inhibition goes with CCOC(=O)c1c(C(C#N)C#N)cc(C)nc1C ?
9.21

Would you mind telling me what activity change, negative = inhibition value was observed for Brc1ccc(-c2cnnc(N3CCCC3)n2)cc1 ?
-13.4

So what's the measured activity change, negative = inhibition for this one? Cc1nn(C)cc1/C=N/n1nnnc1N
0.525

// query activity change, negative = inhibition value for entry O=C(Nc1cccnc1)c1cccnc1
11.7

Look up activity change, negative = inhibition: Fc1cc(F)c(F)c(SCCc2ccncc2)c1F
-7.09

Requested field: activity change, negative = inhibition. Item: CCOC(=O)CNS(=O)(=O)c1cc(-c2n[nH]c(=O)c3ccccc23)ccc1C
-5.55

Can you share its activity change, negative = inhibition? I mean this compound: Cn1c(=O)c2c(nc(OCc3cccnc3)n2Cc2ccccc2)n(C)c1=O
-9.82

Can you look up the measured activity change, negative = inhibition of CCOC(=O)C1CCN(c2ncnc3c2cnn3-c2ccc(OC)cc2)CC1 for me?
4.62

Quick one: activity change, negative = inhibition for Cc1ccc(-n2c(SCC(=O)NCc3ccco3)nc3nc4c(cc3c2=O)COC(C)(C)C4)cc1 ?
-7.85

So what's the measured activity change, negative = inhibition for this one? CCCCCCOc1ccc(C(=O)n2cnc(N)n2)cc1
-12.8

I have this compound here, Fc1ccc2[nH]c3c(N4CCN(C5CCCCC5)CC4)ncnc3c2c1 , and I need its recorded activity change, negative = inhibition.
7.44

I'd like to know its activity change, negative = inhibition. The compound in question is CC[C@H]1OC(=O)C[C@@H](O)[C@H](C)[C@@H](O[C@@H]2O[C@H](C)C[C@H](N(C)C)[C@H]2O)[C@@H](CC=O)C[C@@H](C)C(=O)C=C[C@]2(C)O[C@H]2[C@@H]1C
1.65

Any idea what its activity change, negative = inhibition is? The compound is Clc1ccc(-n2ncc3c(NCc4cccs4)ncnc32)cc1
13.8

What value of activity change, negative = inhibition has been reported for the following compound? Cc1ccc(CNC(=O)c2cc3c(=O)n4ccccc4nc3n(CC3CCCO3)c2=N)cc1 (stereo not drawn)
20.6

Would you kindly share the measured activity change, negative = inhibition for O=c1c(F)cn(C2CCCO2)c(=O)n1Cc1ccccc1Cl (stereo not drawn) ?
0.0939
